test system: MRSA No. 5; experiment: effect of flavone on antibacterial activity of antibiotics against MRSA No. 5 in bouillon (broth microdilution); assay type: cell-based, methicillin-resistant Staphylococcus aureus; settings: Staphylococcus aureus, MRSA, 20 h, Concentration of flavone 0.5 mM

[
  {
    "mol.smiles": "CN[C@H](CC(C)C)C(=O)N[C@H]1C(=O)N[C@@H](CC(N)=O)C(=O)N[C@H]2C(=O)N[C@H]3C(=O)N[C@H](C(=O)N[C@H](C(=O)O)c4cc(O)cc(O)c4-c4cc3ccc4O)[C@H](O)c3ccc(c(Cl)c3)Oc3cc2cc(c3O[C@@H]2O[C@H](CO)[C@@H](O)[C@H](O)[C@H]2O[C@H]2C[C@](C)(N)[C@H](O)[C@H](C)O2)Oc2ccc(cc2Cl)[C@H]1O",
    "units.label": "µM",
    "censoring.qualifier": "<",
    "MIC": 0.98
  },
  {
    "mol.smiles": "CC(=O)OCC1=C(C(=O)O)N2C(=O)[C@@H](NC(=O)Cc3cccs3)[C@H]2SC1",
    "units.label": "µM",
    "censoring.qualifier": "=",
    "MIC": 1.95
  },
  {
    "mol.smiles": "Cc1onc(-c2ccccc2)c1C(=O)N[C@@H]1C(=O)N2[C@@H]1SC(C)(C)[C@@H]2C(=O)O",
    "units.label": "µM",
    "censoring.qualifier": "=",
    "MIC": 15.6
  },
  {
    "mol.smiles": "[H]/N=C(/N)N[C@H]1[C@H](O)[C@@H](O)[C@H](O[C@@H]2O[C@@H](C)[C@](O)(C=O)[C@H]2O[C@@H]2O[C@@H](CO)[C@H](O)[C@@H](O)[C@@H]2NC)[C@@H](N/C(N)=N\\[H])[C@@H]1O",
    "units.label": "µM",
    "censoring.qualifier": "<",
    "MIC": 0.98
  }
]

Values were extracted from patent US6294526A.
